# System: MOLT-4 leukemia
# assay comment: NCI-60 one-dose screen, 48 h
# condition label: 10 µM unless noted
The panel holds about 83,000 compounds, 20% with a hit somewhere; the sample as a whole holds those more often. Activity calls are given as the source filed them. How the source made its calls: active means growth percent below 10; inactive means the rest.
# valid calls are 1 for active, -1 for inactive; nothing else

Field: example entries. Status: answers known.
>>> class("CC[C@H](Nc1nc(N)nc(C)c1C#N)c1nc2cccc(CN(C)c3ncc(C(=O)NO)cn3)c2c(=O)n1-c1ccccc1")
1
>>> class("N#C/C(=C\\c1ccc(-c2cccc(Cl)c2)o1)C(=O)Nc1ncc(Cc2ccc(Cl)cc2)s1")
-1
>>> class("Cc1cc(NCCCNc2ccnc3cc(Cl)ccc23)nc(Nc2ccc(C(=O)N3CCCCC3)cc2)n1")
-1
>>> class("N#Cc1c(-c2cccc(Cl)c2)cc(-c2cccnc2)[nH]c1=O")
-1
>>> class("COc1cc(/C=C/C(=O)c2cccc(-n3cc(-c4ccc(Cl)cc4)[nH]c3=O)c2)ccc1O")
-1
>>> class("CCOC(=O)CC[C@H](NC(=O)c1ccc(N(C)Cc2cnc3nc(N)nc(N)c3n2)c2ccccc12)C(=O)OCC")
-1
>>> class("CN(C)CCCNC(=O)c1cncnc1Nc1ccc2c(ccn2Cc2cccc(F)c2)c1")
-1
>>> class("COc1cc([C@@H](CCO)C[C@H](C)c2ccc3ccccc3c2)cc(OC)c1OC")
-1

Can you look up the reported call for "O=C(NCCN1CCOCC1)OCc1ccc2c(Cl)cc(Cl)c(O)c2n1" for me? -1

Can you look up the reported call for "O=C(/C=C/c1ccccc1)c1ccc(-n2cc(CN3CCN(c4cc5c(cc4F)c(=O)c(C(=O)O)cn5C4CC4)CC3)nn2)cc1" for me? -1

Can you look up the reported call for "Nc1cc(-c2ccc(Cl)cc2)nn1-c1nnc(/C=C/c2ccco2)c(=O)[nH]1" for me? -1

Can you look up the reported call for CCCCC#Cc1c(I)n(C2OC(CO[Si](C)(C)C(C)(C)C)C3OC(C)(C)OC32)c(=O)n(C(=O)c2ccccc2)c1=O (stereo not drawn) for me? 1

Can you look up the reported call for "CNC(=O)c1cc(Oc2ccc3c(c2)sc2nc(-c4ccc(NC(=O)[C@@H](NC(=O)OC)C(C)C)cc4)cn23)ccn1" for me? -1

Can you look up the reported call for "CCOC(=O)NC(=S)n1oc(=O)c2ccccc21" for me? -1

Can you look up the reported call for "C(=C(\C1=NCCN1)n1ccc2ccccc21)/c1ccccc1" for me? -1

Can you look up the reported call for "COc1ccc(C/C(C)=C(\c2ccc(O)cc2)c2ccc(OCCN3CCCCC3)cc2)cc1" for me? -1

Can you look up the reported call for "Cc1ccc(Cc2cnc(NC(=O)/C=C/c3ccc(C)o3)s2)cc1" for me? -1

Can you look up the reported call for "COC(=O)/C(CCC=C(C)C)=C1\[C@@H](OC(C)=O)C[C@@]2(C)[C@H]1C/C(=N/O)[C@H]1[C@@]3(C)CC/C(=N\O)[C@@H](C)[C@@H]3CC[C@@]12C" for me? -1
